# credit: paper PMC5540273

As shown below, each of these compounds has a reported %Inh value.
# System: DYRK1A
# study-conditions: concentration: 1 μM, replicates: in singlicate; n = 1;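 also: KINOMEscan kinase panel screen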
The reply should be a number in %, with the unit left off.

Below are worked cases with known answers.
compound=COC(=O)c1c(-c2ccccc2)c2cc(C)ccc2c(=O)n1Cc1ccccc1 quantity_name=%Inh readout_value=0
compound=COc1cccc(C2=C(Nc3cccc(C(=O)O)c3)C(=O)NC2=O)c1 quantity_name=%Inh readout_value=14
compound=COc1ccc(-c2coc3ccc(-c4nnc(SCc5cccc(C#N)c5)o4)cc23)cc1 quantity_name=%Inh readout_value=5
compound=COC(=O)c1c(-c2ccccc2)c2cc(Br)ccc2c(=O)n1Cc1ccc(NC(=O)CCC(=O)O)cc1 quantity_name=%Inh readout_value=9
compound="CCS(=O)c1ccc(-c2coc3ccc(-c4nnc(C)o4)cc23)cc1 (stereo not drawn)" quantity_name=%Inh readout_value=0
compound=COc1ccc(-c2cc3c(C)nc(N)nc3n([C@H]3CC[C@H](OCCO)CC3)c2=O)cn1 quantity_name=%Inh readout_value=0

Query block: Recorded %Inh of COc1ccc(Nc2nccc(N3CCC(NS(=O)(=O)c4ccc(NC(C)=O)cc4)C3)n2)cc1 (stereo not drawn) , please.
Result block: 8

Query block: // repeat for `Nc1nc(-c2ccccc2F)c(-c2ccnc3ccccc23)s1` and report
Result block: 9

Query block: // repeat for `Cc1cc(Nc2nc(-c3cccc(C)n3)nc3ccccc23)ccn1` and report
Result block: 0

====

As shown below, each of these compounds has a reported %Inh value.
# Test system: FGFR4
# study-conditions: concentration: 1 μM, replicates: in singlicate; n = 1
The reply should be a number in %, with the unit left off.

Below are worked cases with known answers.
line_notation=Cl.c1ccc(Cn2cnc3cc(Nc4ncnc5ccccc45)ccc32)cc1 quantity_name=%Inh readout_value=3
line_notation=CCC(=O)c1c(-c2ccccc2)c2cc(Cl)ccc2c(=O)n1Cc1cc(S(C)(=O)=O)n(CCC(C)(C)O)n1 quantity_name=%Inh readout_value=8
line_notation=Cn1c(=O)c(F)c(Nc2ccc(I)cc2F)c2c(=O)n(OC[C@H](O)CO)cnc21 quantity_name=%Inh readout_value=12
line_notation=CCn1c(-c2ccoc2)nc2cnccc21 quantity_name=%Inh readout_value=20
line_notation=O=C(Nc1n[nH]c2cc(-c3ccccc3F)ccc12)C1CC1 quantity_name=%Inh readout_value=0

Query block: Recorded %Inh of `CCS(=O)(=O)c1ccc(OC)c(Nc2ncc(-c3ccc(F)cc3)o2)c1.Cl` , please.
Result block: 12

Query block: // repeat for `COc1cc(OC)cc(-c2cc3cnc(N)nc3nc2NC(=O)NC(C)(C)C)c1` and report
Result block: 54

Query block: // repeat for `Cl.NS(=O)(=O)c1cccc(Nc2cc(-c3ccc(F)cc3)n[nH]2)c1` and report
Result block: 0

Query block: // repeat for `Cc1nnc(-c2ccc(C)c(-c3ccc(C(=O)O)cc3)c2)o1` and report
Result block: 0

====

As shown below, each of these molecules has a reported %Inh value.
# Test system: NEK9
# study-conditions: concentration: 1 μM, replicates: in singlicate; n = 1
The reply should be a number in %, with the unit left off.

Below are worked cases with known answers.
molecule=CCCNC(=O)Nc1ccc(Oc2ncnc3ccn(C)c23)cc1 test_system=NEK9 readout_value=11
molecule="Cc1nnc(-c2ccc3ncn(-c4ccc(S(C)=O)cc4)c3c2)o1 (stereo not drawn)" test_system=NEK9 readout_value=13
molecule=CCC(=O)c1c(-c2ccccc2)c2cc(Cl)ccc2c(=O)n1Cc1cc(S(C)(=O)=O)n(CC(N)=O)n1 test_system=NEK9 readout_value=0
molecule=Cl.c1ccc(Cn2cnc3cc(Nc4ncnc5ccccc45)ccc32)cc1 test_system=NEK9 readout_value=7
molecule=CCCC(=O)Nc1n[nH]c2ncc(-c3cccc4ccccc34)cc12 test_system=NEK9 readout_value=0
molecule=COC(=O)c1c(-c2ccccc2)c2cc(C)ccc2c(=O)n1Cc1ccccc1 test_system=NEK9 readout_value=0

Query block: Recorded %Inh of `COc1cccc(-n2cnc3c(N)ncnc32)c1` , please.
Result block: 0

Query block: // repeat for `O=C(Nc1n[nH]c2cc(-c3ccccc3F)ccc12)C1CC1` and report
Result block: 0

Query block: // repeat for `COc1cc(Nc2ccnc3ccc(C(F)(F)F)cc23)cc(OC)c1OC` and report
Result block: 13

====

# Test system: p38-alpha
# Construct: gene MAPK14
# study-conditions: concentration: 1 μM, replicates: in singlicate; n = 1
As shown below, each of these compounds has a reported %Inh value.
The reply should be a number in %, with the unit left off.

Below are worked cases with known answers.
compound=CC(C)(C)c1ccc(C(=O)Nc2cn3cc(-c4ccccc4)ccc3n2)cc1 readout_value=0
compound="COc1ccc(Nc2nccc(N3CCC(NS(=O)(=O)c4ccc(NC(C)=O)cc4)C3)n2)cc1 (stereo not shown)" readout_value=82
compound=Nc1ncnc2c1ncn2-c1cccc(F)c1 readout_value=0
compound=CCc1nc(-c2cccc(C)c2)c(-c2ccncc2)s1 readout_value=72
compound=Cc1ccc(-c2ccc3c(ccc4sc5c(c43)NC[C@@H](C)N=C5N(C)C)n2)cn1 readout_value=0
compound=CN(C)c1cc(-c2ccc3c(N)n[nH]c3c2)nc(N)n1 readout_value=0
compound=COC(=O)c1c(-c2ccccc2)c2cc(C)ccc2c(=O)n1Cc1ccccc1 readout_value=8
compound=COc1ccc(-c2coc3ccc(-c4nnc(SCc5cccc(C#N)c5)o4)cc23)cc1 readout_value=5

Query block: Recorded %Inh of `Nc1nc(-c2ccccc2F)c(-c2ccnc3ccccc23)s1` , please.
Result block: 99.8

Query block: // repeat for CCS(=O)c1ccc(-c2coc3ccc(-c4nnc(C)o4)cc23)cc1 (stereo not shown) and report
Result block: 0

Query block: // repeat for `COc1cc(Nc2ccnc3ccc(C(F)(F)F)cc23)cc(OC)c1OC` and report
Result block: 30

Query block: // repeat for `COC(=O)c1c(-c2ccccc2)c2cc(Br)ccc2c(=O)n1Cc1ccc(NC(=O)CCC(=O)O)cc1` and report
Result block: 5

Query block: // repeat for `COc1cccc(C2=C(Nc3cccc(C(=O)O)c3)C(=O)NC2=O)c1` and report
Result block: 0

Query block: // repeat for `CCCNC(=O)Nc1ccc(Oc2ncnc3ccn(C)c23)cc1` and report
Result block: 2

Query block: // repeat for `CCC(=O)c1c(-c2ccccc2)c2cc(Cl)ccc2c(=O)n1Cc1cc(S(C)(=O)=O)n(CC(F)F)n1` and report
Result block: 10

Query block: // repeat for `COc1ccc(-n2cnc3c(N)ncnc32)cc1` and report
Result block: 0

Query block: // repeat for COc1ccc(CNC(=O)NC2CCN(c3ccnc(Nc4ccc(F)cc4)n3)C2)cc1 (stereo not shown) and report
Result block: 44

Query block: // repeat for `Cc1cc(Nc2nc(-c3cccc(C)n3)nc3ccccc23)ccn1` and report
Result block: 20

Query block: // repeat for `CCn1c(-c2ccoc2)nc2cnccc21` and report
Result block: 0

Query block: // repeat for `CCC(=O)c1c(-c2ccccc2)c2cc(Cl)ccc2c(=O)n1Cc1cc(S(C)(=O)=O)n(CCC(C)(C)O)n1` and report
Result block: 16

Query block: // repeat for `Cc1cccc(-c2cc(-c3c[nH]nc3-c3ccccn3)ccn2)c1` and report
Result block: 47

====

# Tested on: HIPK2
# study-conditions: concentration: 1 μM, replicates: in singlicate; n = 1
As shown below, each of these molecules has a reported %Inh value.
The reply should be a number in %, with the unit left off.

Below are worked cases with known answers.
molecule=COc1cccc(C2=C(N(C)c3ccccc3)C(=O)NC2=O)c1 scale_unit=% readout_value=0
molecule=COc1cccc(-n2cnc3c(N)ncnc32)c1 scale_unit=% readout_value=22
molecule="CCS(=O)c1ccc(-c2coc3ccc(-c4nnc(C)o4)cc23)cc1 (centres unmarked)" scale_unit=% readout_value=43
molecule=O=C(Nc1n[nH]c2nc(-c3ccccc3)c(Cl)cc12)C1CC1 scale_unit=% readout_value=0

We now examine a further molecule.
Query block: Recorded %Inh of `COc1ccc(-c2coc3ccc(-c4nnc(SCc5cccc(C#N)c5)o4)cc23)cc1` , please.
Result block: 24

====

# System: CAMK1D
# study-conditions: concentration: 1 μM, replicates: in singlicate; n = 1
As shown below, each of these compounds has a reported %Inh value.
The reply should be a number in %, with the unit left off.

Below are worked cases with known answers.
compound="COc1ccc(CNC(=O)NC2CCN(c3ccnc(Nc4ccc(F)cc4)n3)C2)cc1 (stereo not shown) [GSK1379706]" scale_unit=% readout_value=4
compound="CCCC(=O)Nc1n[nH]c2ncc(-c3cccc4ccccc34)cc12 [SB-642057]" scale_unit=% readout_value=14
compound=CCc1nc(-c2cccc(C)c2)c(-c2ccncc2)s1 scale_unit=% readout_value=23
compound="COc1cc2nccc(Nc3ccc(OCc4ccc(NC(C)=O)cc4)cc3)c2cc1OC.Cl [GW440135]" scale_unit=% readout_value=8

Query block: Recorded %Inh of COc1cc2ncn(-c3cc(OCc4ccncc4Br)c(C(N)=O)s3)c2cc1OC [GW854278] , please.
Result block: 0
